Provenance of the data: ChEMBL document CHEMBL1137005

EXPERIMENTAL_DETAILS: Half life in rat at 1 mg/kg, iv and 2 mg/kg, po
Format: ADME, organism-based
CONDITION_PARAMETERS: in vivo
Overview of recorded half-life for various molecules
READOUT_KIND: half-life (h)

In [3]: df
Out[3]:
                                   molecule  readout_kind  number
0  CS(=O)(=O)c1ccc2c(c1)C(=O)CC1(CCN(C(=O)N[C@H]3C[C@@H]3c3ccccc3)CC1)O2 (racemic)     half-life     2.6
1  CS(=O)(=O)c1ccc2c(c1)CCC1(CCN(C(=O)Cc3ccc(Cl)cc3Cl)CC1)O2     half-life     2.6
2  CS(=O)(=O)c1ccc2c(c1)CCC1(CCN(C(=O)c3ccc(C(F)(F)F)cc3)CC1)O2     half-life      18
3  O=C1CC2(CCN(C(=O)N[C@H]3C[C@@H]3c3ccccc3)CC2)Oc2ccccc21 (racemic)     half-life     1.5
4  CS(=O)(=O)c1ccc2c(c1)CCC1(CCN(C(=O)N[C@H]3C[C@@H]3c3ccccc3)CC1)O2.Cl (racemic)     half-life     3.9

* * *

EXPERIMENTAL_DETAILS: Volume of distribution at steady state in rat at 1 mg/kg, iv and 2 mg/kg, po
Assay type: ADME, organism-based
CONDITION_PARAMETERS: in vivo, read-out: Vdss
Some compounds, each annotated with its measured log10 Vd.
READOUT_KIND: log10 Vd (log10 of the value in L/kg)

>>> df
                                   compound  number
0  CS(=O)(=O)c1ccc2c(c1)CCC1(CCN(C(=O)c3ccc(C(F)(F)F)cc3)CC1)O2    0.20
1  CS(=O)(=O)c1ccc2c(c1)C(=O)CC1(CCN(C(=O)N[C@H]3C[C@@H]3c3ccccc3)CC1)O2 (racemic)   -0.70
2  O=C1CC2(CCN(C(=O)N[C@H]3C[C@@H]3c3ccccc3)CC2)Oc2ccccc21 (racemic)    0.49
3  CS(=O)(=O)c1ccc2c(c1)CCC1(CCN(C(=O)N[C@H]3C[C@@H]3c3ccccc3)CC1)O2.Cl (racemic)   -0.64
4  CS(=O)(=O)c1ccc2c(c1)CCC1(CCN(C(=O)Cc3ccc(Cl)cc3Cl)CC1)O2   -0.82

* * *

# bioavailability values compiled below
EXPERIMENTAL_DETAILS: Bioavailability in rat at 1 mg/kg, iv and 2 mg/kg, po
Format: ADME, organism-based
CONDITION_PARAMETERS: in vivo
READOUT_KIND: bioavailability

>>> print(df.to_string())
                                   compound  result
0  CS(=O)(=O)c1ccc2c(c1)CCC1(CCN(C(=O)N[C@H]3C[C@@H]3c3ccccc3)CC1)O2.Cl (racemic)     86%
1  CS(=O)(=O)c1ccc2c(c1)C(=O)CC1(CCN(C(=O)N[C@H]3C[C@@H]3c3ccccc3)CC1)O2 (racemic)     49%
2  CS(=O)(=O)c1ccc2c(c1)CCC1(CCN(C(=O)Cc3ccc(Cl)cc3Cl)CC1)O2     67%
3  O=C1CC2(CCN(C(=O)N[C@H]3C[C@@H]3c3ccccc3)CC2)Oc2ccccc21 (racemic)     61%
4  CS(=O)(=O)c1ccc2c(c1)CCC1(CCN(C(=O)c3ccc(C(F)(F)F)cc3)CC1)O2     61%

* * *

pIC50: −log10 of the molar value.
What follows is a record of pIC50 for Cytochrome P450 2C9 (Homo sapiens, UniProt P11712).
READOUT_KIND: pIC50

                                   compound                       experimental_target  result
0  O=C(c1ccc(C(F)(F)F)cc1)N1CCC2(CCc3ccccc3O2)CC1  Cytochrome P450 2C9 (Homo sapiens, UniProt P11712)  < 5.00
1  O=C1CC2(CCN(C(=O)NC3CCc4ccccc43)CC2)Oc2ccccc21 (racemic)  Cytochrome P450 2C9 (Homo sapiens, UniProt P11712)  > 5.00
2  O=C1CC2(CCN(C(=O)N[C@H]3C[C@@H]3c3ccccc3)CC2)Oc2ccccc21 (relative stereo)  Cytochrome P450 2C9 (Homo sapiens, UniProt P11712)  < 5.00
3  CS(=O)(=O)c1ccc2c(c1)C(=O)CC1(CCN(C(=O)N[C@H]3C[C@@H]3c3ccccc3)CC1)O2 (racemic)  Cytochrome P450 2C9 (Homo sapiens, UniProt P11712)  < 5.00
4  O=C(CCc1ccccc1)N1CCC2(CCc3cc(F)ccc3O2)CC1  Cytochrome P450 2C9 (Homo sapiens, UniProt P11712)  > 5.00
5  CS(=O)(=O)c1ccc2c(c1)CCC1(CCN(C(=O)N[C@H]3C[C@@H]3c3ccccc3)CC1)O2  Cytochrome P450 2C9 (Homo sapiens, UniProt P11712)  < 5.00

* * *

Reported IC50 is given for each of the following compounds.
Target protein (sequence): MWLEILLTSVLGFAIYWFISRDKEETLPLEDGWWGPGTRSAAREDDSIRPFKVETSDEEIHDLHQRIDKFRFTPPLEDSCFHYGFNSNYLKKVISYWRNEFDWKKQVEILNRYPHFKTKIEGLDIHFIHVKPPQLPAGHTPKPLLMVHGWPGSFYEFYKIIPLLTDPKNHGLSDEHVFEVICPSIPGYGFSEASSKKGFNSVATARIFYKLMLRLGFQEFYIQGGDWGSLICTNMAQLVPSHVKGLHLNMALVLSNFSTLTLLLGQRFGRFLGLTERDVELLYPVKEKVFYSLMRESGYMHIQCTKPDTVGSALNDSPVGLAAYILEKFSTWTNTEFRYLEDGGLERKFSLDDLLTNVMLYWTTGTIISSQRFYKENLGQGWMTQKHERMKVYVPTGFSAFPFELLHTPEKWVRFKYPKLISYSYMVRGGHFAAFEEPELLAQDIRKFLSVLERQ
READOUT_KIND: IC50 (µM)

                                   compound  operator_symbol  number
0  Cn1nccc1-c1ccc2c(c1)C(=O)CC1(CCN(C(=O)N[C@H]3C[C@@H]3c3ccccc3)CC1)O2 (racemic)                =      15
1  CS(=O)(=O)c1ccc2c(c1)CCC1(CCCN(C(=O)N[C@H]3C[C@@H]3c3ccccc3)CC1)O2 (relative stereo)                =      55
2  O=C(N[C@H]1C[C@@H]1c1ccccc1)N1CCC2(CC1)CC(O)c1ncccc1O2 (relative stereo)                >     100
3  CS(=O)(=O)c1ccc2c(c1)C(=O)CC1(CCN(C(=O)N[C@@H]3CC[C@@H](c4ccccc4)C3)CC1)O2 (racemic)                =      10

* * *

EXPERIMENTAL_TARGET: Bifunctional epoxide hydrolase 2 (Homo sapiens, UniProt P34913)
Sequence (P34913 whole entry): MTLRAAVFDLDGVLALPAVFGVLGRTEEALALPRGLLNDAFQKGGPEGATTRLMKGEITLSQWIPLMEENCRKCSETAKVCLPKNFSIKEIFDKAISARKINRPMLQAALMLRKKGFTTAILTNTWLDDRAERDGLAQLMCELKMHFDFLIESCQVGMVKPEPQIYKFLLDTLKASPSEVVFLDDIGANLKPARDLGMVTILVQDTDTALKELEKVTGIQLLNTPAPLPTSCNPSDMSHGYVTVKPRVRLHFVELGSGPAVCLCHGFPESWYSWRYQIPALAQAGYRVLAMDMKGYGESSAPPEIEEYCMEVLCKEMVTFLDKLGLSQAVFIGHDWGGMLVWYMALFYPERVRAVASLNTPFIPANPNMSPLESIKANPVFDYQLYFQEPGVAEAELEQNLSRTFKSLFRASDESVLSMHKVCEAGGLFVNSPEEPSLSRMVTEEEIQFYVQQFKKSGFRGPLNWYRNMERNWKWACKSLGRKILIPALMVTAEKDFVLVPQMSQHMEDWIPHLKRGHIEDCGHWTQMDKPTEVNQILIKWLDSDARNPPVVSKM
EXPERIMENTAL_DETAILS: Inhibition of human soluble epoxide hydrolase
pIC50: −log10 of the molar value.
READOUT_KIND: pIC50

>>> df
                                   molecule                       experimental_target  number
0  O=C(N[C@H]1C[C@@H]1c1ccccc1)N1CCC2(CCc3ncccc3O2)CC1 (relative stereo)  Bifunctional epoxide hydrolase 2 (Homo sapiens, UniProt P34913)    8.30
1  CS(=O)(=O)c1ccc2c(c1)C(=O)CC1(CCN(C(=O)N[C@H]3C[C@@H]3c3ccccc3)CC1)O2 (racemic)  Bifunctional epoxide hydrolase 2 (Homo sapiens, UniProt P34913)    8.40
2  O=C(CCc1ccccc1)N1CCC2(CCc3cc(F)ccc3O2)CC1  Bifunctional epoxide hydrolase 2 (Homo sapiens, UniProt P34913)    8.15
3  O=C1CC2(CCN(C(=O)NC3CCc4ccccc4CC3)CC2)Oc2ccccc21  Bifunctional epoxide hydrolase 2 (Homo sapiens, UniProt P34913)    8.10
4  CS(=O)(=O)c1ccc2c(c1)C(=O)CC1(CCN(C(=O)N[C@@H]3CC[C@@H](c4ccccc4)C3)CC1)O2 (racemic)  Bifunctional epoxide hydrolase 2 (Homo sapiens, UniProt P34913)    8.15
